# Tested System: bovine F1Fo-ATPase (Bos taurus)
# Construct: bovine F1Fo-ATPase present in submitochondrial particles (SMPs); from tissue
# Assay: ATP hydrolysis by F1Fo-ATPase in bovine submitochondrial particles (SMPs)
# Assay type: biochemical
# Particulars: bovine SMPs, drug 0-300 μM; read-out: ATPase activity EC50, Hydrolysis
pEC50: −log10 of the molar value.
Below: a set of entries, each annotated with reported pEC50.

Compound: O=C1CN=C(c2ccccc2Cl)c2cc([N+](=O)[O-])ccc2N1
Censoring Operator: =
pEC50: 3.62

Compound: CN1C(=O)CN=C(c2ccc(Cl)cc2)c2cc(Cl)ccc21
Censoring Operator: <
pEC50: 3.52

Compound: CN1C(=O)C(Cc2ccc3ccccc3c2)N=C(c2ccc(O)cc2)c2cc(Cl)ccc21 (stereo not drawn)
Censoring Operator: =
pEC50: 5.05
